Origin of measurements: patent US20240218023A1

Tested on: HepG2 cells
protocol-details: Cellular uptake / binding of FAM-labeled ligands to HepG2 cells (flow cytometry, proportion of FAM positive cells)
Type: cell-based, human
measurement-context: 40 nM ligand, 24 h, HepG2
A collection of substances and their measured Efficiency (%) of cellular uptake (percentage of ligand-bound HepG2 cells)
# value in %; strip the unit string

Recorded Efficiency (%) of cellular uptake (percentage of ligand-bound HepG2 cells), per entry:
substance	test-result
5-FAM-CPMB-0012: CPS-001 cyclic peptide scaffold, Gal-2 GalNAc linker, 5-FAM label; FIG. 14B (KEKGKG; not fully specified; cyclised or stapled)	74.2
5-FAM-CPMB-0021: CPS-002 cyclic peptide scaffold, Gal-1 GalNAc linker, 5-FAM label; FIG. 14F (KEKGKG; D-residues; cyclised or stapled)	88.7

Now let's try a different one.
Input: Data request, read-out Efficiency (%) of cellular uptake (percentage of ligand-bound HepG2 cells), for 5-FAM-CPMB-0011: CPS-001 cyclic peptide scaffold, Gal-1 GalNAc linker, 5-FAM label; FIG. 14A (KEKGKG; cyclised or stapled)
Output: 67.7
